- Tested on: PPARg:RXRa (NR concentration 180 nM, RXRa partner concentration 90 nM)
- Experimental details: PBM binding z-score (relative to random genomic background probes); higher = stronger binding; sequences stand for … in GC…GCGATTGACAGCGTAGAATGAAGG
Each entry falls in a class defined on PBM binding z-score; the bands are bottom bin: < 0.3; middle bin: ≥ 0.3 and < 2; top bin: ≥ 2

Just checking, what class would you give ATCTCTAGGTAACAAGTTCAGTTAAAGAGAGGAC here?
middle bin

Just checking, what class would you give ATCTCTAGGTAGCCAAGTTCAGTGAATGCCGAAC here?
bottom bin

Just checking, what class would you give ATCTCTAGGCAAAGATAGTTCAGTGAATGCAAAT here?
bottom bin

Just checking, what class would you give CCGATTAGGTTATGGGGCATTCAGGCAACGGTGA here?
top bin

Just checking, what class would you give TCATATAGGTAAAGGTGAAAGTTGAACGATATGA here?
top bin

Just checking, what class would you give ACTTTTAGTTGACTTAGGGCAACCGATACGACGC here?
middle bin

Just checking, what class would you give TCTATTAATTGAAGGGCAACCGACGAGTCCGTTT here?
bottom bin

Just checking, what class would you give AATACAGGGTCTCTAGGCCAGAGTAGGTACGAAT here?
middle bin

###

- System: FXR:RXRa (NR concentration 270 nM, RXRa partner concentration 90 nM)
- Experimental details: PBM binding z-score (relative to random genomic background probes); higher = stronger binding; sequences stand for … in GC…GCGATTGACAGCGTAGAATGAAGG
Readings of PBM binding z-score for the listed sequences
The reply should be a number, written without any unit.

GCTAGCAGGCCATTTGGGGCACTCAATGACGGGC -0.254

Report measured PBM binding z-score on FXR:RXRa (NR concentration 270 nM, RXRa partner concentration 90 nM); entry: ACTCGGAGGACAAAGGTCAGAGCGACGCCAGTGA
4.14

Report measured PBM binding z-score on FXR:RXRa (NR concentration 270 nM, RXRa partner concentration 90 nM); entry: CCTGCTAAGTCATGGTCAGCTAATCTACAGTATG
-0.197

Report measured PBM binding z-score on FXR:RXRa (NR concentration 270 nM, RXRa partner concentration 90 nM); entry: AGTCAAAGTTCACTAGGTAACTTAAGATTCAGCT
5.3

Report measured PBM binding z-score on FXR:RXRa (NR concentration 270 nM, RXRa partner concentration 90 nM); entry: ATCTCTAGGTAAAGTTCTGTGAAAGATCGATAGA
0.326

Report measured PBM binding z-score on FXR:RXRa (NR concentration 270 nM, RXRa partner concentration 90 nM); entry: TCCTATAGGTAAAAGGTGAAAGTCGGTGTGGTAA
2.04

Report measured PBM binding z-score on FXR:RXRa (NR concentration 270 nM, RXRa partner concentration 90 nM); entry: CGATCTAGGTCATCCAGGACAGTGAATACATTGA
4.46

###

- Test system: PXR homodimer (NR concentration 270 nM)
- Experimental details: PBM binding z-score (relative to random genomic background probes); higher = stronger binding; sequences stand for … in GC…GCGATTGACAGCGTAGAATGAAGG
Decision: PBM binding z-score >= 0.2 yields Satisfied, all other cases yield Not satisfied.

CCTACTGGGCCCAGGTCATTGATCAGTCAAAGCA Satisfied
ATCTCTAGGTAACGAAGTTCAGTGAATGCCGAAC Satisfied
CCGACTGGGGCACGGTTACCATAACGCACAGCCA Not satisfied
ACCGAAAGGTCGACGAGGTGAGTATACACCGTTT Satisfied

Is the recorded value of PBM binding z-score equal to or greater than 0.2 for this sequence? CTCGGAAGGTCGTGCTCAGGTGAGTATACCAAAC
Not satisfied

Is the recorded value of PBM binding z-score equal to or greater than 0.2 for this sequence? TCATATAGGTAAAAGGTTAAAGTCGGTGTGGTAA
Satisfied

Is the recorded value of PBM binding z-score equal to or greater than 0.2 for this sequence? CAAACTATGTCACGAAAGGTCAAAGTCGAATGAC
Satisfied

###

- Test system: RARg homodimer (NR concentration 270 nM)
- Experimental details: PBM binding z-score (relative to random genomic background probes); higher = stronger binding; sequences stand for … in GC…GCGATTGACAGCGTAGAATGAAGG
Parameter: PBM binding z-score
The reply should be a number, written without any unit.

Consider the worked cases shown below.
ATCTCTAGCTAAAGATAGTTCAGTGAATGCAAAT 0.353
AGAATGAGGTTAAGATCTGGGAAACAGAATACAT 1.54
ACTCAGAGGACAAAGGTCAGAGCTACGCCAGTGA 5.89
AGAACGAGGGCACGCTGAATTGATAGCAGAGTAG 2.36
TCGAGTAGGTTATTCGGGGCATTCAGCCAACATA 0.448
GTACCAAGGTGAATAGCTCGTTGATGAGTAGGCG 0.489
TGAATGAGGTTAAAGATCAGGGTACGTGGCGTCG 1.42
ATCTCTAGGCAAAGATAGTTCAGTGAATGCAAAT 0.586
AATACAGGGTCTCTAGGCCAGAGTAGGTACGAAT 0.292
TTACCAAGGTGAGCGGAGGTCGTTGATCCAACTC 1.18

Consider the sequence TCTTGTAGATCAACCAGGTTAAGAAAGCCTGAGT . State its measured PBM binding z-score.
-0.146

Consider the sequence TCTAGTTGGTCAAAGGTCGCACACTCGAAATGCG . State its measured PBM binding z-score.
2.91

###

Readings of PBM binding z-score for the listed sequences
- Test system: PXR:RXRa (NR concentration 270 nM, RXRa partner concentration 90 nM)
- Experimental details: PBM binding z-score (relative to random genomic background probes); higher = stronger binding; sequences stand for … in GC…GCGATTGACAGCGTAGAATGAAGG

Consider the worked cases shown below.
TTGAGTAGGTTAGGGGCATTCAGAATGGCGTCGA 0.703
ATATGTAGATTAGCTGGGGTCATTCAGACTAGGC 5.46
ATATGTAGGTTATCGGGCCATTCAGTTTGCGCAT 0.605

Consider the sequence TCTAGTTGGTCACTGAGGTCACACACGACGGGTA . State its measured PBM binding z-score.
4.97

Consider the sequence TCTATTAGTTGAAGGGCAACCCACGAGTCCGTTT . State its measured PBM binding z-score.
1.02

Consider the sequence GCTAGCAGGCCATTTGGGTCACTCCATGACGGGC . State its measured PBM binding z-score.
0.113

Consider the sequence CCTAACGGGTCACTGACAGGTTATAGCATTTGGA . State its measured PBM binding z-score.
3.02

Consider the sequence GTTAGTTGGTCAGTAAAAGGTCACACACCGGTCG . State its measured PBM binding z-score.
5.26

Consider the sequence AGAATGAGGTTACCAAAGATCATGGAAACGCTTG . State its measured PBM binding z-score.
1.8

Consider the sequence AGAGCGAGGGCAATGAGTTGATAGCACGGGTGGC . State its measured PBM binding z-score.
1.38

Consider the sequence ATCTCTAGGTCAAGTTCAGTGAAAGATCGATAGA . State its measured PBM binding z-score.
3.45

###

- Test system: RARb homodimer (NR concentration 270 nM)
- Experimental details: PBM binding z-score (relative to random genomic background probes); higher = stronger binding; sequences stand for … in GC…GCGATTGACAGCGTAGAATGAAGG
Decision: PBM binding z-score >= 1 yields True, all other cases yield False.

Known results for sequences:
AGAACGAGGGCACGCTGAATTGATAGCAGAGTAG False
AGAACCAGGGCACGCTGAGTTGATAGCAGAGTAG False
CCTCGGAGGACACAAGGTCAGAGCTGTCCGCTTT True
CGAACGAGGGCATGAGTTGATTGCAAATGCCGAT False
TGAATGAGGTTAAGGATCAGGGAACGTGGCGTCG False
ACTAGCAGGCCATGTTTGGGTCACTCAAACAAAG True

Please look at the following sequence next.
Is the recorded value of PBM binding z-score equal to or greater than 1 for this sequence? CTCGAAGGGTCGGTTGAGGTGAGTATACGGATAA
True

###

- System: PPARg:RXRa IVT, anti-PPARg (NR concentration 270 nM, RXRa partner concentration 90 nM)
- Experimental details: PBM binding z-score (relative to random genomic background probes); higher = stronger binding; sequences stand for … in GC…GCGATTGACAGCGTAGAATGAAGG
Decision: PBM binding z-score >= 2 yields criterion met, all other cases yield criterion not met.

Known results for sequences:
AGAACGGGGGCACGCTGAGTTGATAGCAGAGTAG criterion met
AATACAGCGTCACTAGGCCAGAGTAGGTACGAAT criterion not met
CATACAGGGTCAGCTAGGCAAGAGTAGGGACGGC criterion met
CCTGCTAGGTCAATGCTCAGCTAAAGCAGCTCGC criterion met
AGAATGAGGTTATACGCAGATCAGGGAAGAAAGT criterion met
ATCTCTAGCTAAAAGTTCAGTGAATCCCGAGGAT criterion not met

Is the recorded value of PBM binding z-score equal to or greater than 2 for this sequence? TCAGACAGGTGAACGTAACTCAGGTACGCAGTCG
criterion not met

Is the recorded value of PBM binding z-score equal to or greater than 2 for this sequence? TCTTGTTGATCAATAGAGGTTAAGAAAGTGCGCT
criterion not met

Is the recorded value of PBM binding z-score equal to or greater than 2 for this sequence? GCAGACAGGTCAAACGCAGGTAACTCAGGGTGGC
criterion not met

Data origin: the supplement of paper PMC6555819
